Values from the supplement of paper PMC9694430

# System: LOC_OS05G30820-cb001;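 further: purified Escherichia coli-expressed rice kinase domain construct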
# protocol_summary: thermal shift delta Tm vs DMSO control; higher = stronger stabilization (binding)
# experimental_setup: 12.5 µM; protein concentration 2 µM
# label = yes if thermal shift delta Tm >= 0.5 °C else no

{"compound": "CS(=O)(=O)CCNCc1ccc(-c2ccc3ncnc(Nc4ccc(OCc5cccc(F)c5)c(Cl)c4)c3c2)o1 [Lapatinib]", "qualitative_label": "yes"}
{"compound": "C#Cc1cccc(Nc2ncnc3cc(OCCOC)c(OCCO)cc23)c1", "qualitative_label": "no"}
{"compound": "O=C(NCCO)c1cccc(-c2cc(Nc3ccc(OC(F)(F)F)cc3)ncn2)c1", "qualitative_label": "no"}
{"compound": "CN1c2ccccc2C(=O)Nc2cnc(Nc3ccc(N4CCC(O)CC4)cc3)nc21", "qualitative_label": "yes"}
{"compound": "Cc1cc(F)c(Nc2ncnc3cc(OCc4ccccc4)ccc23)cc1O", "qualitative_label": "yes"}
{"compound": "O=C1NC(=O)C(c2cnc3ccccn23)=C1c1cn2c3c(cc(F)cc13)CN(C(=O)N1CCCCC1)CC2", "qualitative_label": "no"}
{"compound": "Cc1c(C(=O)N2CCOc3ccc(-c4ccc(N)nc4)cc3C2)ccc(S(C)(=O)=O)c1F", "qualitative_label": "no"}
{"compound": "COc1cc2ncnc(Nc3ccc(Oc4ccccc4)cc3C)c2cc1OC", "qualitative_label": "no"}
{"compound": "O=C(NOCC1CC1)c1ccc(F)c(F)c1Nc1ccc(I)cc1Cl", "qualitative_label": "yes"}
{"compound": "CC1=C(C(=O)Nc2ccc3[nH]ncc3c2)C(c2ccc(F)cc2)NC(=O)N1 (stereo unspecified)", "qualitative_label": "no"}
{"compound": "CC[C@@H]1C(=O)N(C)c2cnc(Nc3ccc(C(=O)N[C@H]4CC[C@H](N5CCN(CC6CC6)CC5)CC4)cc3OC)nc2N1C(C)C [Volasertib (BI 6727)]", "qualitative_label": "yes"}
{"compound": "COc1cc2c(Oc3ccc4[nH]c(C)cc4c3F)ncnc2cc1OCCCN1CCCC1 [Cediranib (AZD2171)]", "qualitative_label": "no"}
{"compound": "O=C(NCc1ccccc1)c1csc(Nc2ccncn2)n1 [Thiazovivin]", "qualitative_label": "no"}
{"compound": "COc1cc(Nc2ncc(F)c(Nc3ccc4c(n3)NC(=O)C(C)(C)O4)n2)cc(OC)c1OC", "qualitative_label": "yes"}
{"compound": "C[C@@H]1COCCN1c1cc(=O)n2c(n1)N(Cc1cncc(Cl)c1)[C@H](C(F)(F)F)CC2", "qualitative_label": "no"}
{"compound": "NCC(=O)Nc1ccc(-n2nc(C(F)(F)F)cc2-c2ccc3c(ccc4ccccc43)c2)cc1", "qualitative_label": "no"}
{"compound": "COCCOc1ccc2c(c1)ncn2-c1ccc2cccc(N3CCC(N)CC3)c2n1", "qualitative_label": "yes"}
{"compound": "O=S(=O)(NCCNC/C=C/c1ccc(Br)cc1)c1cccc2cnccc12", "qualitative_label": "yes"}
{"compound": "Cc1ccc(Nc2nccc(N(C)c3ccc4c(C)n(C)nc4c3)n2)cc1S(N)(=O)=O [Pazopanib]", "qualitative_label": "yes"}
{"compound": "COc1ccc(F)c(F)c1C(=O)c1cnc(NC2CCN(S(C)(=O)=O)CC2)nc1N", "qualitative_label": "no"}
{"compound": "COc1cc2c(Oc3ccc(NC(=O)C4(C(=O)Nc5ccc(F)cc5)CC4)cc3F)ccnc2cc1OCCCN1CCOCC1", "qualitative_label": "yes"}
{"compound": "CN1CCCN(C(=O)c2cccc(-c3ccc(/C=C4/C(=O)Nc5ccc(Cl)cc54)o3)c2)CC1", "qualitative_label": "yes"}
{"compound": "C[C@H](CN(C)C)Oc1nc(Nc2cc3cccc(Cl)c3cn2)cnc1C#N", "qualitative_label": "no"}
{"compound": "C=CC(=O)Nc1ccc2ncnc(Nc3cccc(Br)c3)c2c1", "qualitative_label": "yes"}
{"compound": "Oc1cc(CNC(=S)/C=C/c2cc(O)c(O)c(Br)c2)cc(O)c1O", "qualitative_label": "yes"}
{"compound": "O=C(O)c1ccc2c(c1)nc(Nc1cccc(Cl)c1)c1ccncc12 [Silmitasertib (CX-4945)]", "qualitative_label": "yes"}
